System: PANC1
run.description: SRB antiproliferation assay, PANC1 pancreatic cells
Type: cell-based
condition.description: read-out: Cytotoxicity (as of %Control) IC50 value, PANC 1; SRB, 72 h incubations, mean ± SD, n = 3
pIC50: −log10 of the molar value.
measure: pIC50

Noted for O=C(O)C[C@H](O)C[C@H](O)/C=C/c1c(C2CC2)nc2ccccc2c1-c1ccc(F)cc1 : its pIC50 reads < 4.30

###

Test system: MCF7
run.description: SRB antiproliferation assay, MCF7 breast cancer cells
Assay type: cell-based
condition.description: read-out: Cytotoxicity (as of %Control) IC50 value, MCF7; SRB, 72 h incubations, mean ± SD, n = 3
pIC50: −log10 of the molar value.
measure: pIC50

compound	study.system	measure	result
CC(C)c1nc(N(C)S(C)(=O)=O)nc(-c2ccc(F)cc2)c1/C=C/[C@@H](O)C[C@@H](O)CC(=O)O	MCF7	pIC50	5.82
CC(C)n1c(/C=C/C(O)CC(O)CC(=O)O)c(-c2ccc(F)cc2)c2ccccc21 (stereo not drawn)	MCF7	pIC50	< 4.30

Just so you know, measured pIC50 for CC[C@H](C)C(=O)O[C@H]1CCC=C2C=C[C@H](C)[C@H](CC[C@@H]3C[C@@H](O)CC(=O)O3)[C@H]21 came out at < 4.30
